meta.source: ChEMBL document CHEMBL4765301

TARGET_UNDER_TEST: Epidermal growth factor receptor (Homo sapiens) (UniProt P00533)
Sequence (P00533 whole entry): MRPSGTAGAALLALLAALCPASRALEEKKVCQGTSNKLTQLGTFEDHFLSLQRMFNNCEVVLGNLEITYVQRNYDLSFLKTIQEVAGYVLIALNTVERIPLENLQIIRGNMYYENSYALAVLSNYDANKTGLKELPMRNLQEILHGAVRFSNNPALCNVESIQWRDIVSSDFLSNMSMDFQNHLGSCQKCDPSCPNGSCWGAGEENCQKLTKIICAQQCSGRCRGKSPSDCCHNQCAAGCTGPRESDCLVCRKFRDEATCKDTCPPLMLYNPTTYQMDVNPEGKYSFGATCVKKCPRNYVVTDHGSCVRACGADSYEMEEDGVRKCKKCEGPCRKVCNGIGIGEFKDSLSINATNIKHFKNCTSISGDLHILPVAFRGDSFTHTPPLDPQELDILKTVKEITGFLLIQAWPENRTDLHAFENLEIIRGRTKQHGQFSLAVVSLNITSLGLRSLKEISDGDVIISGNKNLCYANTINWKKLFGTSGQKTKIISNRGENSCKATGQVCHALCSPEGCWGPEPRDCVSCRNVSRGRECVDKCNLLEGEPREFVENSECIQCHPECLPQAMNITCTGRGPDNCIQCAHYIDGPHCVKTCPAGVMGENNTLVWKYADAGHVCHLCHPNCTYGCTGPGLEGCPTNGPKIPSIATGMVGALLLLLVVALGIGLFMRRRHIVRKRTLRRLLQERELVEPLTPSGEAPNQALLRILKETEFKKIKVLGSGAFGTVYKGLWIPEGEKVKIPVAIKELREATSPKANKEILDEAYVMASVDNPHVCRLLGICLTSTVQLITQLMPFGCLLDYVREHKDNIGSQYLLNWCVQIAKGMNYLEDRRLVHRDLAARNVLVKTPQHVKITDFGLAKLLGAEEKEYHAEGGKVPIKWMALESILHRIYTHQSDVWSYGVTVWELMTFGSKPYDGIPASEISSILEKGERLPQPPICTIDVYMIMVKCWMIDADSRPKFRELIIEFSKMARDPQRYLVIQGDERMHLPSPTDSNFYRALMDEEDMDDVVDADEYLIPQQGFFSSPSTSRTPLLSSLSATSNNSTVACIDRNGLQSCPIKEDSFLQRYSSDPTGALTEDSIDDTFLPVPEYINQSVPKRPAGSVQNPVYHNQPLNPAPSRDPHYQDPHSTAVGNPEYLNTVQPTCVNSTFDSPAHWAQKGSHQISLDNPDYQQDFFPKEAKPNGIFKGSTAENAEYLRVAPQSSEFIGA
EXPERIMENTAL_DETAILS: Inhibition of recombinant human EGFR (696 to end residues) assessed as residual activity at 1 uM using poly(Glu, Tyr) 4:1 as substrate incubated for 40 mins by [gamma-33P]-ATP scintillation counting based radiometry assay relative to control
OUTCOME_MEASURE: Activity (%)
Numbers only, in %.

Below, 6 compounds whose answers are already recorded.
| SMILES_NOTATION | UOM | EXPERIMENTAL_VALUE |
| --- | --- | --- |
| CCC(=O)Nc1cc(Nc2ncnc3sc4c(c23)CCN(CC)C4)ccc1N(C)C | % | 93 |
| CN(C)c1ccc(Nc2ncnc3sc4c(c23)CCN(C(=O)c2ccccn2)C4)cc1NC(=O)c1ccco1 | % | 104 |
| CCC(=O)Nc1cc(Nc2ncnc3sc4c(c23)CCN(C(=O)c2ccc(C(F)(F)F)cc2)C4)ccc1N(C)C | % | 107 |
| CN(C)c1ccc(Nc2ncnc3sc4c(c23)CCNC4)cc1NC(=O)c1cccnc1 | % | 108 |
| CN1CCc2c(sc3ncnc(Nc4ccc(N(C)C)c(NC(=O)c5ccncc5)c4)c23)C1 | % | 105 |
| CCC(=O)Nc1cc(Nc2ncnc3sc4c(c23)CCN(C)C4)ccc1N(C)C | % | 99 |

Please state Activity for every compound in the list that follows.
1. CN1CCN(CCCN2CCc3c(sc4ncnc(Nc5ccc(N(C)C)c(NC(=O)c6ccco6)c5)c34)C2)CC1
2. CN(C)c1ccc(Nc2ncnc3sc4c(c23)CCN(C(=O)c2cccnc2)C4)cc1NC(=O)c1cccs1
3. CN1CCc2c(sc3ncnc(Nc4ccc(N(C)C)c(NC(=O)c5cccs5)c4)c23)C1

1: 90; 2: 94; 3: 104

====

TARGET_UNDER_TEST: Serine/threonine-protein kinase TNNI3K (Homo sapiens, UniProt Q59H18)
Sequence (Q59H18 whole entry): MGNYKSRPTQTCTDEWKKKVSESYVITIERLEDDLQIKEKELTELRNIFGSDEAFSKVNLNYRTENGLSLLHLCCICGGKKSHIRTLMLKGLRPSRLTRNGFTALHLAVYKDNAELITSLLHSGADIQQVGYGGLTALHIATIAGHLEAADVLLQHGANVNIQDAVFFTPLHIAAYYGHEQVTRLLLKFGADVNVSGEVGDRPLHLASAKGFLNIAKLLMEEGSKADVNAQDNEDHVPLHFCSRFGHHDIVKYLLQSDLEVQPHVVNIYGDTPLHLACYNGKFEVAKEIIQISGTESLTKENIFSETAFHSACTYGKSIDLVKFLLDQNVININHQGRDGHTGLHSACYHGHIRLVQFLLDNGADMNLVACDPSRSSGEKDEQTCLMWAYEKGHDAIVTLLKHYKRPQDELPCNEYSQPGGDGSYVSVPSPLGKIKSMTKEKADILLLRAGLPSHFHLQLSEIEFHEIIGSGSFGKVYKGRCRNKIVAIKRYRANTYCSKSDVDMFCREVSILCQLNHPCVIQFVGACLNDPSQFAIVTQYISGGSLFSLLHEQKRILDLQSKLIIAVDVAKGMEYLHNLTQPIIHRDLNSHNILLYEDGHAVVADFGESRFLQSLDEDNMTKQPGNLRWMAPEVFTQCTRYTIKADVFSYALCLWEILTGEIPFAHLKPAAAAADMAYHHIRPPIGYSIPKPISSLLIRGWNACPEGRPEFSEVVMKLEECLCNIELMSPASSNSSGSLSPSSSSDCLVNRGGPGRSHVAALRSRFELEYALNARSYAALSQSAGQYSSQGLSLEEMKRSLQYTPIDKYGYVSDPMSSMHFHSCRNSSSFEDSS
EXPERIMENTAL_DETAILS: Inhibition of TNNI3K (unknown origin) using biotinylated CTnI as substrate by HTRF analysis
OUTCOME_MEASURE: IC50 (nM)
Numbers only, in nM.

Below, 2 compounds whose answers are already recorded.
| SMILES_NOTATION | UOM | IC50 |
| --- | --- | --- |
| CN(C)CCCN1CCc2c(sc3ncnc(Nc4ccc(N(C)C)c(NC(=O)c5ccco5)c4)c23)C1 | nM | 240 |
| CN(C)c1ccc(Nc2ncnc3sc4c(c23)CCN(C(=O)c2ccccn2)C4)cc1NC(=O)c1ccco1 | nM | 820 |

Entry CN(C)c1ccc(Nc2ncnc3sc4c(c23)CCN(C(=O)c2ccncc2)C4)cc1NC(=O)c1ccco1 : reported IC50 = ?
980

====

TARGET_UNDER_TEST: UniProt:P17948
Sequence (P17948 whole entry): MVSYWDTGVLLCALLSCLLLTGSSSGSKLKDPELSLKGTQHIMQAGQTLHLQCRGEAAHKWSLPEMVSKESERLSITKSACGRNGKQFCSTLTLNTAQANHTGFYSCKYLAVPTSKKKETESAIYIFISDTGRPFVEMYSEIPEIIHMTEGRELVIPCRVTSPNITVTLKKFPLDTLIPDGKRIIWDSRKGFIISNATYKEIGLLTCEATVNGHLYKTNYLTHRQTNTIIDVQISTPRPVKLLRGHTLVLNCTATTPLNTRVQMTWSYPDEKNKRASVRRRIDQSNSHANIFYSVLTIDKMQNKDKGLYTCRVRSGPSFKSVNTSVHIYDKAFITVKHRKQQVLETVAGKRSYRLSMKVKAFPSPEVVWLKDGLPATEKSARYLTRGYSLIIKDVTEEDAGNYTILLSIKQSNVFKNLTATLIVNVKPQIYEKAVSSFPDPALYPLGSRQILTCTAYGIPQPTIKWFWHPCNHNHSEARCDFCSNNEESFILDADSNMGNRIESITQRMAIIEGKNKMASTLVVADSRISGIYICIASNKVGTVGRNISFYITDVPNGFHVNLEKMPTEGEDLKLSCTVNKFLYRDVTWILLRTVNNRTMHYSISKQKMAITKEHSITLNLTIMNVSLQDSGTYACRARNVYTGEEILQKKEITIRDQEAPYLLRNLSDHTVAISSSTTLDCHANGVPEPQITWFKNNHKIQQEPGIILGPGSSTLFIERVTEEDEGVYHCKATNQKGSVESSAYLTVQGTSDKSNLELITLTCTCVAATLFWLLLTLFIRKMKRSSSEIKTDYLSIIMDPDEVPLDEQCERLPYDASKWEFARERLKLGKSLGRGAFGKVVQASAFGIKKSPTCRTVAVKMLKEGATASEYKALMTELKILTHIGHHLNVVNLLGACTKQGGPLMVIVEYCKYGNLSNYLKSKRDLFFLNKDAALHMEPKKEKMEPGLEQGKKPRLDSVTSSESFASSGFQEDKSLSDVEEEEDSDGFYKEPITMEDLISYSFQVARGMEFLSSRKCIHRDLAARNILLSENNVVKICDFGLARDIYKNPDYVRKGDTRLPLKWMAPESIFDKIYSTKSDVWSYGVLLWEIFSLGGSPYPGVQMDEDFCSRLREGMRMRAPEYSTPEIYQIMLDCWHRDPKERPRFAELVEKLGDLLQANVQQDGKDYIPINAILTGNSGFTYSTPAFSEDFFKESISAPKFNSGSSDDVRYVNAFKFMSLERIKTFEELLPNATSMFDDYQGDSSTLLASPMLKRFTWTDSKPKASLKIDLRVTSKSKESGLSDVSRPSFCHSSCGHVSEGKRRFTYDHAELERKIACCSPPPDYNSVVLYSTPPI
EXPERIMENTAL_DETAILS: Inhibition of recombinant human FLT1 (783 to end residues) assessed as residual activity at 1 uM using KKKSPGEYVNIEFG as substrate incubated for 40 mins by [gamma-33P]-ATP scintillation counting based radiometry assay relative to control
Field: Activity. Provide a value for each of the compounds that follow.
Numbers only, in %.

Below, 2 compounds whose answers are already recorded.
| SMILES_NOTATION | UOM | Activity |
| --- | --- | --- |
| CN(C)c1ccc(Nc2ncnc3sc4c(c23)CCNC4)cc1NC(=O)c1cccc2ccccc12 | % | 105 |
| CN(C)c1ccc(Nc2ncnc3sc4c(c23)CCNC4)cc1NC(=O)c1ccco1 | % | 96 |

Please state Activity for every compound in the list that follows.
1. CN(C)CCCN1CCc2c(sc3ncnc(Nc4ccc(N(C)C)c(NC(=O)c5cccs5)c4)c23)C1
2. CN(C)c1ccc(Nc2ncnc3sc4c(c23)CCN(C(=O)c2ccncc2)C4)cc1NC(=O)c1cccs1

1: 98; 2: 85
